Organism: Homo sapiens
Protocol Description: Selectivity index, ratio of IC50 for recombinant human CYP1A1 to IC50 for recombinant human CYP1B1
Endpoint Label: Ratio IC50

Example entries and their recorded answers appear below.
Query Smiles: COc1ccc(OC)c2c1c(OC)cc1c(=O)cc(-c3cscn3)oc12
Measurement: 1.2
//
Query Smiles: COc1ccc(OC)c2c1c(OC)cc1c(=O)cc(-c3cccs3)oc12
Measurement: 0.9
//
Query Smiles: COc1ccc(OC)c2c1c(OC)cc1c(=O)cc(-c3cncc(N)c3)oc12
Measurement: 0.8

P. COc1ccc(OC)c2c1c(OC)cc1c(=O)cc(-c3cccc(C)n3)oc12
Q. COc1ccc(OC)c2c1c(OC)cc1c(=O)cc(-c3ccccn3)oc12
Short answer wanted: higher Ratio IC50, P or Q ? Reply with the label of the item you choose.
P

====

Species on record: Homo sapiens
Protocol Description: Selectivity index, ratio of IC50 for recombinant human CYP1A2 to IC50 for recombinant human CYP1B1
Endpoint Label: Ratio IC50

Query Smiles: COc1ccc(OC)c2c1c(OC)cc1c(=O)cc(-c3ccc(F)cn3)oc12
Measurement: > 14300

Query Smiles: COc1ccc(OC)c2c1c(OC)cc1c(=O)cc(-c3ccco3)oc12
Measurement: 56

Query Smiles: COc1ccc(OC)c2c1c(OC)cc1c(=O)cc(-c3cncc(O)c3)oc12
Measurement: > 97.1

For the molecule shown here, COc1ccc(OC)c2c1c(OC)cc1c(=O)cc(-c3ccnc(Cl)c3)oc12 , give the reported Ratio IC50.
> 909

Please give the result for COc1ccc(OC)c2c1c(OC)cc1c(=O)cc(-c3ccncc3N)oc12 too.
> 40.3

Please give the result for COc1ccc(OC)c2c1c(OC)cc1c(=O)cc(-c3ccnnc3)oc12 too.
> 500

====

Species: Homo sapiens
Protocol Description: Selectivity index, ratio of IC50 for recombinant human CYP1A1 to IC50 for recombinant human CYP1B1
Endpoint Label: Ratio IC50

1. COc1ccc(OC)c2c1c(OC)cc1c(=O)cc(-c3ccc(N)cn3)oc12
2. COc1ccc(OC)c2c1c(OC)cc1c(=O)cc(-c3ccc4[nH]ncc4c3)oc12
3. COc1ccc(OC)c2c1c(OC)cc1c(=O)cc(-c3c[nH]c4ncccc34)oc12
4. COc1ccc(OC)c2c1c(OC)cc1c(=O)cc(-c3ccnc(Cl)c3)oc12
Which order do these items take when sorted by rising Ratio IC50? List them. Give me the labels in the order the question wants.
3, 2, 1, 4
